biological target: T1, human Aβ peptide (1-40) biotinylated at the C terminus (human, UniProt P05067 672-711, biotinylated at the C-terminus); test: Aβ binding ELISA, human Aβ (1-40) biotinylated at the C terminus
T1 construct: domain: β-amyloid peptide (1-40); Numbers 1-40 count on the β-amyloid peptide, not on APP; also called beta-amyloid 1-40 peptide (biotinylated at the C-terminus); streptavidin-captured beta-amyloid (1-40)
T1 sequence (P05067 672-711 limits assumed): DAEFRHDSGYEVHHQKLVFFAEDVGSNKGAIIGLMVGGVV
observedProperty: EC50 (µg/mL)
Give just the number in µg/mL; leave the unit off.

Name the reported EC50 value associated with the binder Chimeric 2E7 antibody (2E7c) (antibody, human IgG1, V domains shown, Parent murine V regions on human IgG1 (L235A, G237A) and human C kappa; also called 2E7c Chimera; not shown: human IgG1 heavy chain constant region, Fc mutated (L235A, G237A); human C kappa constant region) VH: EVKLVESGGGLVQPGGSLKLSCAVSGFTFSDNGMAWVRQAPRKGPEWIAFISNLAYSIDYADTVTGRFTISRDNAKNTLYLEMSSLRSEDTAMYYCVSGTWFAYWGQGTLVTVSA VL: DVVLTQTPLSLPVSLGDQASISCRVSQSLLHSNGYTYLHWYLQKPGQSPKLLIYKVSNRFSGVPDRFSGSGSGTDFTLKISRVEAEDLGVYFCSQTRHVPYTFGGGTKLEIK
0.043
